biological target: T1, Anti-PSMA Fab (SEQ ID NOs: 19, 20); experiment: phage binding ELISA; biotinylated PSMA Fab on neutravidin plate, clonal phage supernatant, anti-M13 HRP detection;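 note: wells were preincubated with blocking buffer either containing PSMA antigen or without it before crude phage supernatant was added, briefly incubated, then washed prior to detection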
T1 construct: Biotinylated PSMA Fab captured on neutravidin coated plates in the phage ELISA; also called 006 PSMA Fab
Where no end group is shown, it is not given here.
property.measured: Anti-PSMA Fab (SEQ ID NOs: 19, 20) signal

• WLPMCRPAWMCAGL (cysteine pairing not given here; also: displayed on phage as pIII fusion, pIII sequence and linker not given here, tested as crude clonal phage supernatant) [Phage-1836] = 2.27
• VMKWCIPVWMCGGM (tested as crude clonal phage supernatant) [Phage-1838] = 2.26
• GLNWCTPTWMCQGF (tested as crude clonal phage supernatant) [Phage-1837] = 2.26
• DIPWCIPPWMCAGS (cysteine pairing not given here; also: displayed on phage as pIII fusion, pIII sequence and linker not given here, tested as crude clonal phage supernatant) [Phage-1833] = 2.28
• MVKWCIPSWMCDSV (tested as crude clonal phage supernatant) [Phage-1840] = 2.23
• VERMCMPAWMCDMF (tested as crude clonal phage supernatant) [Phage-1834] = 2.28
• MGKWCIPEWMCNVS (tested as crude clonal phage supernatant) [Phage-1832] = 2.29
• YDILCRPSWMCSWV (tested as crude clonal phage supernatant) [Phage-1839] = 2.24
• IIPWCKPAWMCSGM (tested as crude clonal phage supernatant) [Phage-1831] = 2.29
• TDKWCIPPWMCMLQ (tested as crude clonal phage supernatant) [Phage-1841] = 2.23
• YEKWCVPDWMCSMI (tested as crude clonal phage supernatant) [Phage-1835] = 2.28
• LDRWCIPEWMCEMF (tested as crude clonal phage supernatant) [Phage-1843] = 2.22
• FTNWCTPEWMCSGF (tested as crude clonal phage supernatant) [Phage-1845] = 2.21
• VERWCVPEWMCHWI (tested as crude clonal phage supernatant) [Phage-1842] = 2.23
• TDKLCIPEWMCINW (tested as crude clonal phage supernatant) [Phage-1844] = 2.22
